src = ChEMBL document CHEMBL3856288

experiment: Cytotoxicity against human MT4 cells assessed as decrease in cell viability after 5 days by MTT assay; assay type: toxicity, cell-based
CC50 at 120 h values by entry

Solved cases (3 shown):
CC(C)OC(=O)[C@H](C)NP(=O)(CO[C@H]1CO[C@@H](n2cnc3c(=O)[nH]c(N)nc32)C1)Oc1ccccc1 (some centres undefined); ≥ 112 µM
Nc1nc2c(ncn2[C@H]2C[C@@H](OCP(=O)(O)O)CO2)c(=O)[nH]1; > 302 µM
CCCOC(=O)[C@H](Cc1ccccc1)NP(=O)(CO[C@H]1CO[C@@H](n2cnc3c(=O)[nH]c(N)nc32)C1)N[C@@H](Cc1ccccc1)C(=O)OCCC; > 62 µM

Field: next compound
query: Please give the measured CC50 at 120 h for this compound: CC(C)CCOC(=O)C[C@H](NP(=O)(CO[C@H]1CO[C@@H](n2cnc3c(N)ncnc32)C1)Oc1ccccc1)C(=O)OCCC(C)C (some centres undefined)
result: 16.9 µM

====

assay: Selectivity index, ratio of CC50 for human MT4 cells to EC50 for HIV1 3B infected in human MT4 cells; assay type: toxicity, cell-based; settings: read-out: Ratio CC50/EC50
selectivity ratio values by entry

Solved cases (5 shown):
CC(C)CCOC(=O)C[C@H](NP(=O)(CO[C@H]1CO[C@@H](n2cnc3c(N)ncnc32)C1)Oc1ccccc1)C(=O)OCCC(C)C (some centres undefined); 792
Cc1cn([C@H]2C[C@@H](OCP(=O)(N[C@@H](C)C(=O)OC(C)C)Oc3ccccc3)CO2)c(=O)[nH]c1=O (some centres undefined); 223
Nc1ccn([C@@H]2CS[C@H](CO)O2)c(=O)n1; > 39
CC(C)OC(=O)[C@H](C)NP(=O)(CO[C@H]1CO[C@@H](n2cnc3c(N)ncnc32)C1)Oc1ccccc1 (some centres undefined); 597
Nc1ncnc2c1ncn2[C@H]1C[C@@H](OCP(=O)(O)O)CO1; ≥ 67

query: Please give the measured selectivity ratio for this molecule: Cc1cn([C@H]2C[C@@H](OCP(=O)(N[C@@H](CC(=O)OCCC(C)C)C(=O)OCCC(C)C)Oc3ccccc3)CO2)c(=O)[nH]c1=O (some centres undefined)
result: 2350

query: Now consider "CCCOC(=O)[C@H](Cc1ccccc1)NP(=O)(CO[C@H]1CO[C@@H](n2cc(C)c(=O)[nH]c2=O)C1)N[C@@H](Cc1ccccc1)C(=O)OCCC" .
result: 1970

query: Now consider "Cc1cn([C@H]2C[C@@H](OCP(=O)(O)O)CO2)c(=O)[nH]c1=O" .
result: 11

query: Now consider "CCCOC(=O)[C@H](Cc1ccccc1)NP(=O)(CO[C@H]1CO[C@@H](n2cnc3c(N)ncnc32)C1)N[C@@H](Cc1ccccc1)C(=O)OCCC" .
result: 347

====

selectivity ratio values by entry
test: Selectivity index, ratio of CC50 for human MT4 cells to EC50 for HIV2 ROD infected in human MT4 cells; type: toxicity, cell-based; conditions: read-out: Ratio CC50/EC50

Cc1cn([C@H]2C[C@@H](OCP(=O)(O)O)CO2)c(=O)[nH]c1=O; 13

query: Please give the measured selectivity ratio for this compound: "CCCOC(=O)[C@H](Cc1ccccc1)NP(=O)(CO[C@H]1CO[C@@H](n2cnc3c(N)ncnc32)C1)N[C@@H](Cc1ccccc1)C(=O)OCCC"
result: 570

query: Now consider CC(C)OC(=O)[C@H](C)NP(=O)(CO[C@H]1CO[C@@H](n2cnc3c(N)ncnc32)C1)Oc1ccccc1 (some centres undefined) .
result: 1150

====

experiment: Cytotoxicity against human MT4 cells assessed as decrease in cell viability after 5 days by MTT assay; format: toxicity, cell-based
reported endpoint: CC50 at 120 h (µM)
Unit µM implied. Number only.

Cc1cn([C@H]2C[C@@H](OCP(=O)(N[C@@H](CC(=O)OCCC(C)C)C(=O)OCCC(C)C)Oc3ccccc3)CO2)c(=O)[nH]c1=O (some centres undefined); 42.2

query: Please give the measured CC50 at 120 h for this compound: "CCCOC(=O)[C@H](Cc1ccccc1)NP(=O)(CO[C@H]1CO[C@@H](n2cnc3c(N)ncnc32)C1)N[C@@H](Cc1ccccc1)C(=O)OCCC"
result: 1.12

====

assay: Cytotoxicity against human MT4 cells assessed as decrease in cell viability after 5 days by MTT assay; assay type: toxicity, cell-based
CC50 at 120 h values by entry

Solved cases (3 shown):
Cc1cn([C@H]2C[C@@H](OCP(=O)(N[C@@H](C)C(=O)OC(C)C)Oc3ccccc3)CO2)c(=O)[nH]c1=O (some centres undefined); 127 µM
CC(C)OC(=O)[C@H](C)NP(=O)(CO[C@H]1CO[C@@H](n2ccc(N)nc2=O)C1)N[C@@H](C)C(=O)OC(C)C; ≥ 193 µM
Nc1ccn([C@@H]2CS[C@H](CO)O2)c(=O)n1 [LAMIVUDINE]; > 87.2 µM

query: Please give the measured CC50 at 120 h for this compound: "Nc1ncnc2c1ncn2[C@@H]1OC[C@H](OCP(=O)(O)O)[C@H]1F"
result: 262 µM

====

test: Half life in human liver S9 fraction at 100 uM by HPLC-UV method; assay type: ADME, subcellular
half-life at 100 µM values by entry

query: Please give the measured half-life at 100 µM for this compound: "CCCOC(=O)[C@H](Cc1ccccc1)NP(=O)(CO[C@H]1CO[C@@H](n2cnc3c(N)ncnc32)C1)N[C@@H](Cc1ccccc1)C(=O)OCCC"
result: < 10 min

query: Now consider CC(C)OC(=O)[C@H](C)NP(=O)(CO[C@H]1CO[C@@H](n2cnc3c(N)ncnc32)C1)Oc1ccccc1 (stereo partly drawn) .
result: > 60 min

query: Now consider CC(C)CCOC(=O)C[C@H](NP(=O)(CO[C@H]1CO[C@@H](n2cnc3c(N)ncnc32)C1)Oc1ccccc1)C(=O)OCCC(C)C (stereo partly drawn) .
result: 12.1 min

====

test: Selectivity ratio of CC50 for human HepG2(2.2.15) cells to EC50 for reduction in HBV ayw1 extracellular DNA copy number; conditions: read-out: Ratio CC50/EC50
reported endpoint: selectivity ratio

Cc1cn([C@H]2C[C@@H](OCP(=O)(O)O)CO2)c(=O)[nH]c1=O; > 2.49
CC(C)OC(=O)[C@H](C)NP(=O)(CO[C@H]1CO[C@@H](n2ccc(N)nc2=O)C1)Oc1ccccc1 (stereo not given in full); > 2
CC(C)CCOC(=O)C[C@H](NP(=O)(CO[C@H]1CO[C@@H](n2cnc3c(N)ncnc32)C1)Oc1ccccc1)C(=O)OCCC(C)C (stereo not given in full); > 1250

query: Please give the measured selectivity ratio for this compound: "CCCOC(=O)[C@H](Cc1ccccc1)NP(=O)(CO[C@H]1CO[C@@H](n2cc(C)c(=O)[nH]c2=O)C1)N[C@@H](Cc1ccccc1)C(=O)OCCC"
result: > 36

query: Now consider CC(C)OC(=O)[C@H](C)NP(=O)(CO[C@H]1CO[C@@H](n2cnc3c(N)ncnc32)C1)Oc1ccccc1 (stereo not given in full) .
result: > 333

query: Now consider "Nc1ccn([C@@H]2CS[C@H](CO)O2)c(=O)n1" .
result: > 200

query: Now consider Cc1cn([C@H]2C[C@@H](OCP(=O)(N[C@@H](C)C(=O)OC(C)C)Oc3ccccc3)CO2)c(=O)[nH]c1=O (stereo not given in full) .
result: > 38

query: Now consider "CCCOC(=O)[C@H](Cc1ccccc1)NP(=O)(CO[C@H]1CO[C@@H](n2cnc3c(N)ncnc32)C1)N[C@@H](Cc1ccccc1)C(=O)OCCC" .
result: > 1000

query: Now consider Cc1cn([C@H]2C[C@@H](OCP(=O)(N[C@@H](CC(=O)OCCC(C)C)C(=O)OCCC(C)C)Oc3ccccc3)CO2)c(=O)[nH]c1=O (stereo not given in full) .
result: 136

query: Now consider "Nc1ncnc2c1ncn2[C@H]1C[C@@H](OCP(=O)(O)O)CO1" .
result: > 200

====

CC50 values by entry
assay: Cytotoxicity against human HepG2(2.2.15) cells assessed as reduction in cell viability by MTS assay; format: toxicity, cell-based

Cc1cn([C@H]2C[C@@H](OCP(=O)(O)O)CO2)c(=O)[nH]c1=O; > 100 µM

query: Please give the measured CC50 for this compound: "Nc1ncnc2c1ncn2[C@H]1C[C@@H](OCP(=O)(O)O)CO1"
result: > 100 µM

====

assay: Selectivity index, ratio of CC50 for human MT4 cells to EC50 for HIV2 ROD infected in human MT4 cells; type: toxicity, cell-based; settings: read-out: Ratio CC50/EC50
reported endpoint: selectivity ratio
Could you respond with only the numeric value?

Solved cases (3 shown):
CC(C)CCOC(=O)C[C@H](NP(=O)(CO[C@H]1CO[C@@H](n2cnc3c(N)ncnc32)C1)Oc1ccccc1)C(=O)OCCC(C)C (stereo partly specified); 4810
Cc1cn([C@H]2C[C@@H](OCP(=O)(N[C@@H](CC(=O)OCCC(C)C)C(=O)OCCC(C)C)Oc3ccccc3)CO2)c(=O)[nH]c1=O (stereo partly specified); 3860
Cc1cn([C@H]2C[C@@H](OCP(=O)(N[C@@H](C)C(=O)OC(C)C)Oc3ccccc3)CO2)c(=O)[nH]c1=O (stereo partly specified); 295

Field: next molecule
query: Please give the measured selectivity ratio for this molecule: "CCCOC(=O)[C@H](Cc1ccccc1)NP(=O)(CO[C@H]1CO[C@@H](n2cc(C)c(=O)[nH]c2=O)C1)N[C@@H](Cc1ccccc1)C(=O)OCCC"
result: 2780
